- test_target: human recombinant kinase full-length wildtype AKT1 (Homo sapiens)
- Construct: Purified human recombinant kinase full-length wildtype AKT1 was expressed in insect cells
- Sequence (P31749 whole entry): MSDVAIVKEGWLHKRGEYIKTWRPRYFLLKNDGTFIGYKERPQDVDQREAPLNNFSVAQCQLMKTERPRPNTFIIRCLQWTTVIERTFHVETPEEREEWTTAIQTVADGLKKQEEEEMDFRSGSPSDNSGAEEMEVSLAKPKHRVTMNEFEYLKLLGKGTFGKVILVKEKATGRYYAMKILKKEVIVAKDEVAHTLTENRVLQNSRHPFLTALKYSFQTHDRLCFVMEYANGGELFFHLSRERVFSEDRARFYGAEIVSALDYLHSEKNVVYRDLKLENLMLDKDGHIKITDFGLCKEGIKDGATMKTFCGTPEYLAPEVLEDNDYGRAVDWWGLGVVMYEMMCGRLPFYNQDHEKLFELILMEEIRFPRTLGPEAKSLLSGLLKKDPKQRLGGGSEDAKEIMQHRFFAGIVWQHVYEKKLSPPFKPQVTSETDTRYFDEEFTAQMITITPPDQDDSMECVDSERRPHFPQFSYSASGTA
- protocol_notes: AKT1 kinase assay (wildtype, TR-FRET, Lance)
- assay_context: 0.6 nM wildtype AKT1, 50 nM Ulight-CREBtide, either 50 μM ATP or 2 mM ATP (not specified which), 60 min at RT
pIC50: −log10 of the molar value.
Catalogue of pIC50 values

Reported pIC50 for Cc1cc(NC(=O)c2ccc(-n3c(-c4cccnc4N)nc4ccc(-c5ccccc5)nc43)cn2)ccc1C(=O)O [Compound 177] : what is it?
> 6.30

Next record, please: Nc1ncccc1-c1nc2ccc(-c3ccccc3)nc2n1-c1ccc(C2CN(C(=O)c3ccc(C(=O)O)cc3F)C2)cc1 [Compound 76]
> 6.30

Further, for Nc1ncccc1-c1nc2ccc(-c3ccccc3)nc2n1-c1ccc(NC(=O)c2ccc(C(=O)O)cc2)cc1 [Compound 53] ?
> 6.30

Now the same for Nc1ncccc1-c1nc2ccc(-c3ccccc3)nc2n1-c1ccc(C2CN(C(=O)c3ccccc3C(=O)O)C2)cc1 [Compound 74]
< 6.30

Same question, CC(C)(C)c1ccc2nc(-c3cccnc3N)n(-c3ccc(NC(=O)c4ccc(C(=O)O)cc4)nc3)c2c1 [Compound 174] this time
< 6.30

Same for C[C@H](c1ccc(C(=O)O)cc1F)N1CC(c2ccc(-n3c(-c4cccnc4N)nc4ccc(-c5ccccc5)nc43)cc2)C1 [Compound 160]
> 6.30

Item: CC(c1ccc(C(=O)O)c(F)c1)N1CC(c2ccc(-n3c(-c4cccnc4N)nc4ccc(-c5ccccc5)nc43)cc2)C1 (stereo not shown) [Compound 163]
> 6.30
